Target: SNAP protein tags (Homo sapiens, UniProt P16455, A127T/A154D/C150Q/C62A/E30R/G131K/G132T/G153L/K125A/K32I/L33F/M134L/N157G/Q115S/Q116H/R128A/R135S/S151G/S152D/S159E)
Sequence (P16455 1-182 with the stated changes): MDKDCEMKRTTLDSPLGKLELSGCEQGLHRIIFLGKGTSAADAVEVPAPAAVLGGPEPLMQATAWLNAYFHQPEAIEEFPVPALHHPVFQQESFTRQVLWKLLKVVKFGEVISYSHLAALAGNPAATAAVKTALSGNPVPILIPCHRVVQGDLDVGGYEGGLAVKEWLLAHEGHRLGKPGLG
Assay: Fluorescence activation of probe after incubation with corresponding protein tag (SNAP)
Type: biochemical
Conditions: probe 5 μM, protein tag 10 μM, 37° C., 1 hr
Measure name: Quantum yield of probe bound to protein tag

q: Name the recorded Quantum yield of probe bound to protein tag of the molecule listed here: CN(CCOC(=O)NCc1ccc(COc2nc(N)nc3[nH]cnc23)cc1)c1cc2sc3cc(/C=C(\C#N)C(=O)OC(C)(C)C)sc3c2s1 [probe 60]
a: 0.81

q: Name the recorded Quantum yield of probe bound to protein tag of the molecule listed here: CN(CCOC(=O)NCc1ccc(COc2nc(N)nc3[nH]cnc23)cc1)c1cc2sc(/C=C(\C#N)c3nc4ccccc4o3)cc2s1 [probe 22]
a: 0.36

q: Name the recorded Quantum yield of probe bound to protein tag of the molecule listed here: CN(CCC(=O)NCc1ccc(COc2nc(N)nc3[nH]cnc23)cc1)c1ccc(/C=C(\C#N)C(=O)OC(C)(C)C)cc1 [probe 13]
a: 0.29

====

Test: Viscosity responsiveness: fluorescence emission spectra of probes in glycerol and methanol
Assay type: physicochemical
Details: excited at maximum excitation wavelength of each probe
Measure name: Emission wavelength (nm)
Could you give me the number in nm? Just the number is fine.

q: Name the recorded Emission wavelength of the compound listed here: CN(CCOC(=O)NCc1ccc(COc2nc(N)nc3[nH]cnc23)cc1)c1ccc2nc(/C=C(\C#N)c3nc4ccccc4s3)oc2c1
a: 627

q: Name the recorded Emission wavelength of the compound listed here: CC(C)(C)OC(=O)/C(C#N)=C/c1ccc2c(c1)SCCN2CCOC(=O)NCc1ccc(COc2nccc(N)n2)cc1
a: 515

q: Name the recorded Emission wavelength of the compound listed here: CN(CCO)c1ccc2nc(/C=C(\C#N)C(=O)NCc3ccc(COc4nc(N)nc5[nH]cnc45)cc3)sc2c1 [Reference Probe 115, reference compound]
a: 625

====

Biological target: SNAP protein tags (Homo sapiens, UniProt P16455, A127T/A154D/C150Q/C62A/E30R/G131K/G132T/G153L/K125A/K32I/L33F/M134L/N157G/Q115S/Q116H/R128A/R135S/S151G/S152D/S159E)
Assay: Fluorescence activation of probe after incubation with corresponding protein tag (SNAP)
Type: biochemical
Details: probe 5 μM, protein tag 10 μM, 37° C., 1 hr
Measure name: Fluorescence activation multiple
Give the figure only, with no unit attached.

q: Name the recorded Fluorescence activation multiple of the molecule listed here: CN(C)c1ccc(-c2ccc(/C=C(\C#N)C(=O)NCc3ccc(COc4nc(N)nc5[nH]cnc45)cc3)s2)s1 [Reference Probe 119, reference compound]
a: 15

q: Name the recorded Fluorescence activation multiple of the molecule listed here: CN(CCOC(=O)NCc1ccc(COc2nc(N)nc3[nH]cnc23)cc1)c1ccc2nc(/C=C(\C#N)C(=O)O)oc2c1
a: 541

q: Name the recorded Fluorescence activation multiple of the molecule listed here: CN(CCOC(=O)NCc1ccc(COc2nc(N)nc3[nH]cnc23)cc1)c1ccc(-c2ccc(/C=C(\C#N)C(=O)O)s2)cc1
a: 562

q: Name the recorded Fluorescence activation multiple of the molecule listed here: CN1C(=O)/C(=C/c2ccc(N(C)CCOC(=O)NCc3ccc(COc4nc(N)nc5[nH]cnc45)cc3)cc2)N=C1c1ccccc1
a: 771

q: Name the recorded Fluorescence activation multiple of the molecule listed here: CC(C)(C)OC(=O)/C(C#N)=C/c1ccc2c(c1)SCCN2CCOC(=O)NCc1ccc(COc2nc(N)nc3[nH]cnc23)cc1
a: 209

q: Name the recorded Fluorescence activation multiple of the molecule listed here: COCCNC(=O)/C(C#N)=C/c1ccc(-c2ccc(N(C)CCOC(=O)NCc3ccc(COc4cc(Cl)nc(N)n4)cc3)cc2)s1
a: 681

q: Name the recorded Fluorescence activation multiple of the molecule listed here: CC(C)(C)OC(=O)/C(C#N)=C/c1cc2ccc(N(CCC#N)CCOC(=O)NCc3ccc(COc4nc(N)nc5[nH]cnc45)cc3)cc2s1
a: 488

q: Name the recorded Fluorescence activation multiple of the molecule listed here: N#C/C(=C\c1ccc2c(c1)SCCN2CCO)C(=O)NCc1ccc(COc2nc(N)nc3[nH]cnc23)cc1 [Reference Probe 104, reference compound]
a: 23

q: Name the recorded Fluorescence activation multiple of the molecule listed here: COCCNC(=O)/C(C#N)=C/c1ccc(-c2ccc(N(C)CCOC(=O)NCc3ccc(COc4nc(N)nc5[nH]cnc45)cc3)s2)s1
a: 369

q: Name the recorded Fluorescence activation multiple of the molecule listed here: COCCOCCOCCOCCOCCN(CCOC(=O)NCc1ccc(COc2nc(N)nc3[nH]cnc23)cc1)c1ccc(/C=C(\C#N)C(=O)OC(C)(C)C)cc1
a: 351

q: Name the recorded Fluorescence activation multiple of the molecule listed here: CC1=CC(C)(C)N(CCOC(=O)NCc2ccc(COc3nc(N)nc4[nH]cnc34)cc2)c2ccc(/C=C(\C#N)C(=O)OC(C)(C)C)cc21
a: 515

q: Name the recorded Fluorescence activation multiple of the molecule listed here: CN(CCOC(=O)NCc1ccc(COc2nc(N)nc3[nH]cnc23)cc1)c1ccc2nc(/C=C(\C#N)c3nc4ccccc4s3)oc2c1
a: 358

q: Name the recorded Fluorescence activation multiple of the molecule listed here: CN(CCOC(=O)NCc1ccc(COc2nc(N)nc3[nH]cnc23)cc1)c1cc2sc(/C=C(\C#N)c3nc4ccccc4o3)cc2s1
a: 610

q: Name the recorded Fluorescence activation multiple of the molecule listed here: CN(CCOC(=O)NCc1ccc(COc2nc(N)nc3[nH]cnc23)cc1)c1ccc2nc(/C=C(\C#N)c3nc4ccccc4s3)sc2c1
a: 382

q: Name the recorded Fluorescence activation multiple of the molecule listed here: CN(CCOC(=O)NCc1ccc(COc2nc(N)nc3[nH]cnc23)cc1)c1cc2c(s1)-c1sc(/C=C(/C#N)C(=O)OC(C)(C)C)cc1[Si]2(C)C
a: 311

q: Name the recorded Fluorescence activation multiple of the molecule listed here: CN(CCC(=O)NCc1ccc(COc2nc(N)nc3[nH]cnc23)cc1)c1ccc(/C=C(\C#N)C(=O)OC(C)(C)C)cc1
a: 315

q: Name the recorded Fluorescence activation multiple of the molecule listed here: N#C/C(=C\c1cc2c3c(c1)CCCN3CCC2)C(=O)NCC(=O)NCc1ccc(COc2nc(N)nc3[nH]cnc23)cc1 [Reference Probe BG-Gly-CCVJ, reference compound]
a: 60

q: Name the recorded Fluorescence activation multiple of the molecule listed here: CN(CCOC(=O)NCc1ccc(COc2nc(N)nc3[nH]cnc23)cc1)c1cc2c(s1)-c1sc(/C=C(/C#N)c3nc4ccccc4o3)cc1[Si]2(C)C
a: 211

q: Name the recorded Fluorescence activation multiple of the molecule listed here: CN1C(=O)/C(=C\c2cc3ccc(N(C)CCOC(=O)NCc4ccc(COc5nc(N)nc6[nH]cnc56)cc4)cc3s2)N=C1c1ccccc1
a: 298

q: Name the recorded Fluorescence activation multiple of the molecule listed here: CN(CCO)c1ccc(-c2ccc(/C=C(\C#N)C(=O)NCc3ccc(COc4nc(N)nc5[nH]cnc45)cc3)s2)cc1 [Reference Probe 118, reference compound]
a: 29

q: Name the recorded Fluorescence activation multiple of the molecule listed here: CN(C)c1ccc(/C=C(\C#N)C(=O)NCc2ccc(COc3nc(N)nc4[nH]cnc34)cc2)cc1 [Reference Probe 100, reference compound]
a: 43

q: Name the recorded Fluorescence activation multiple of the molecule listed here: CN(CCO)c1ccc2nc(/C=C(\C#N)C(=O)NCc3ccc(COc4nc(N)nc5[nH]cnc45)cc3)sc2c1 [Reference Probe 115, reference compound]
a: 38

q: Name the recorded Fluorescence activation multiple of the molecule listed here: COCCNC(=O)/C(C#N)=C/c1cc2cc3sc(N(C)CCOC(=O)NCc4ccc(COc5nc(N)nc6[nH]cnc56)cc4)cc3cc2s1
a: 239

q: Name the recorded Fluorescence activation multiple of the molecule listed here: CN(CCOC(=O)NCc1ccc(COc2nc(N)nc3[nH]cnc23)cc1)c1ccc2cc(/C=C(\C#N)C(=O)OC(C)(C)C)sc2c1 [probe 30]
a: 535
